This collection of values is drawn from patent US20160102058A1.

Entries annotated with measured Cmax
Protocol: Mouse oral pharmacokinetics, plasma and myocardium
Assay type: in vivo, male BALB/c mice
Run conditions: male, BALB/c, 10 mg/kg oral gavage, plasma, read-out: Cmax, plasma
All answers are understood in ng/mL, so give the number only.

C1CCC(C(CC2CCCCN2)C2CCCCC2)CC1 (centres unmarked); 116

Query block: Tell me its Cmax given FC1(F)CCC(C(CC2CCCCN2)C2CCCCC2)CC1 (mixture of isomers) as the entry.
Result block: 347

----------
System tested: cardiac CPT-1 (Rattus norvegicus, UniProt Q63704)
Sequence (Q63704 1-772): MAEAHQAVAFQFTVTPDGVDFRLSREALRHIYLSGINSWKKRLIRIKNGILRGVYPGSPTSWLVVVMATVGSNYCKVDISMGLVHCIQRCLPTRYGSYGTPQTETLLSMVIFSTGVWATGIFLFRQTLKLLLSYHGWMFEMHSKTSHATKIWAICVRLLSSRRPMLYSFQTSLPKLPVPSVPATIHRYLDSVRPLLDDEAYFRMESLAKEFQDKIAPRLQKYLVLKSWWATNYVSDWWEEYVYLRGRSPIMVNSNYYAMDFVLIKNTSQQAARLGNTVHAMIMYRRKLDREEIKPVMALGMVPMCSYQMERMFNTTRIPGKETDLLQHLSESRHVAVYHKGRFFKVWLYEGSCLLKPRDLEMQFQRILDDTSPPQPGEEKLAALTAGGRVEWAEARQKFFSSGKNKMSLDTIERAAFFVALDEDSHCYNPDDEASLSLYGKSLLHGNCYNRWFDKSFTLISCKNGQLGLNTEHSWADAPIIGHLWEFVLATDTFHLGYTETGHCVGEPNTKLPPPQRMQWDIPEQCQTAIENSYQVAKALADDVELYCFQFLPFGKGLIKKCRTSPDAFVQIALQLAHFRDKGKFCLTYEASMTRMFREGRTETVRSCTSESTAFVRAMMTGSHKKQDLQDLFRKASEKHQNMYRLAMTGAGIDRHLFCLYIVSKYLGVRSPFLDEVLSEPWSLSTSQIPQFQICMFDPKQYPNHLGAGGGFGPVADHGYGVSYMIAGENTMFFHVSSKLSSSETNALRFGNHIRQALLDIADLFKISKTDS
Measured endpoint: IC50

Query block: Tell me its IC50 given C1CCC(C(CC2CCCCN2)C2CCCCC2)CC1 (stereo not shown) [Perhexiline, 2-(2,2-dicyclohexylethyl)piperidine] as the entry.
Result block: 18 µM
